Where do these numbers come from? They come from patent US20210070748A1.

# Study system: BTK-WT (Homo sapiens)
# Construct: purified from insect cells as a full-length construct containing an N-terminal 6X-His tag; His6 (N); made in house; host or cells: insect cells (baculovirus Sf21 in Method B)
# Sequence (Q06187 whole entry): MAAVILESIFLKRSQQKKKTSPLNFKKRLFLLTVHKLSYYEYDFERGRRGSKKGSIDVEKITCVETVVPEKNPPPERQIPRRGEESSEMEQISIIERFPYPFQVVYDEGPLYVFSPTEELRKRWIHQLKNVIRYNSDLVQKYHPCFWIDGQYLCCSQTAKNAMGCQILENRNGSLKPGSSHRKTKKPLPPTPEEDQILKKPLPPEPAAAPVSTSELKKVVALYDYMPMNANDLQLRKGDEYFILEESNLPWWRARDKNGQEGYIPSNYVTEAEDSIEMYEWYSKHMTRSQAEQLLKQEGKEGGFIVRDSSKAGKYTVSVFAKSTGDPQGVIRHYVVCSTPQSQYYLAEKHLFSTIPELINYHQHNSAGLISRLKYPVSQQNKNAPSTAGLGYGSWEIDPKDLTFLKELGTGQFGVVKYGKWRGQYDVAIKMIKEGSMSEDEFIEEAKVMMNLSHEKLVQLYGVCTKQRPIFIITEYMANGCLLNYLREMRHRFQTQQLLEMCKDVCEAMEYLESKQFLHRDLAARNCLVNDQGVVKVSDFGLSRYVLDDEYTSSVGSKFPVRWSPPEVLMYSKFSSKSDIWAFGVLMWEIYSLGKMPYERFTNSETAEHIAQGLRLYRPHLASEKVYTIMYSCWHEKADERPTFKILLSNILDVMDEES
# Assay method text: Btk in vitro inhibitory activity (one of Method A TR-FRET, Method B electrophoretic mobility shift, Method C radiometric filter binding)
# Format: biochemical
# Condition: D-compounds panel data; read-out: IC50 BTK-WT
Measurement type: IC50

Cc1cc(Nc2nc(N3C[C@@H](NC(=O)N(C)C)CC[C@H]3C)cnc2C(N)=O)sn1: 10 to 100 nM
C[C@@H]1[C@H](NC(=O)N(C)C)CCCN1c1cnc(C(N)=O)c(Nc2ccc(N3CCN(C)CC3)cc2F)n1: 10 to 100 nM
C[C@@H]1[C@H](NC(=O)c2ccc3ncsc3c2)CCCN1c1cnc(C(N)=O)c(Nc2cnn(C)c2)n1: ≤ 10 nM
CN(C)C(=O)N[C@H]1CCCN(c2cnc(C(N)=O)c(Nc3ccc4ncccc4c3)n2)[C@H]1CO (racemic): 100 to 1000 nM
C[C@@H]1[C@H](NC(=O)c2ccc(C3CC3)cc2F)CCCN1c1cnc(C(N)=O)c(Nc2ccc(N3CCN(C)C[C@@H]3C)cc2)n1: ≤ 10 nM
Cc1csc(Nc2nc(N3CCC[C@@H](NC(=O)c4ccc(C5CC5)cc4F)[C@H]3C)cnc2C(N)=O)n1: 1000 to 10000 nM
CN1CCN(Cc2ccc(Nc3nc(N4CCC[C@@H](n5ccc6cc(C7CC7)ccc6c5=O)C4)cnc3C(N)=O)cc2)CC1: ≤ 10 nM
C[C@@H]1[C@H](NC(=O)c2ncc(C3CC3)cn2)CCCN1c1cnc(C(N)=O)c(Nc2cnn(C)c2)n1: ≤ 10 nM
CCN(C)C(=O)N[C@@H]1CCCN(c2cnc(C(N)=O)c(Nc3cnn(C)c3)n2)[C@@H]1C: ≤ 10 nM
C[C@@H]1[C@H](NC(=O)c2ccc(C3CC3)cc2)CCCN1c1cnc(C(N)=O)c(Nc2cnc(N3CCN(C)CC3)nc2)n1: ≤ 10 nM

get_value(item= C[C@@H]1[C@H](NC(=O)c2ccc(C3CC3)cc2F)CCCN1c1cnc(C(N)=O)c(Nc2ccc(N3CCN(C)CC3)cc2)c1 , readout=IC50) returns 10 to 100 nM
